assay_target: T1, Peptide A (human PAR-2), unbiotinylated (Human)
T1 construct: also called Peptide A No Biotin
T1 peptide: GTNRSSKGRSLIGKVDGT
procedure_summary: SPR, antibody captured
Recorded Kd values for a group of binders are listed next.
endpoint: Kd (nM)

• H4H580P (antibody, human IgG4, V domains shown, also called H1H580P variable regions) VH: QVQLVESGGGVVQPGRSLRLSCVASGFTFSRYGMHWVRQAPGKGLEWVVVISYDGINKYYADSVKGRFTISRDNSKNTVYLQMNSLRAEDTAVYHCAKGDFWSGYFDYWGQGTLVTVSS VL: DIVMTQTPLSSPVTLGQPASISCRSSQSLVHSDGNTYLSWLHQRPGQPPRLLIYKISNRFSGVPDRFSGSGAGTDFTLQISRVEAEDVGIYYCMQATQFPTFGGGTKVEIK = 103
• H4H579P (antibody, human IgG4, V domains shown, also called H1H579P variable regions) VH: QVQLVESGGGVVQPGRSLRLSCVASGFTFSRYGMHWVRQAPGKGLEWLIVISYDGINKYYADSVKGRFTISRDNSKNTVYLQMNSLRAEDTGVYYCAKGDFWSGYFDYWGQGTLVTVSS VL: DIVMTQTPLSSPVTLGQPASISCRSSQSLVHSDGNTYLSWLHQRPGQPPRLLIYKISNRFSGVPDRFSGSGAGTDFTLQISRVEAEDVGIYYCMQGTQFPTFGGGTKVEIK = 15
• H4H585P (antibody, human IgG4, V domains shown, also called H1H585P variable regions) VH: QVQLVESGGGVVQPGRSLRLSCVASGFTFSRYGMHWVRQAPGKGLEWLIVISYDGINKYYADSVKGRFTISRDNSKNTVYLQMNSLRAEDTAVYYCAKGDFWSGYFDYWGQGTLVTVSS VL: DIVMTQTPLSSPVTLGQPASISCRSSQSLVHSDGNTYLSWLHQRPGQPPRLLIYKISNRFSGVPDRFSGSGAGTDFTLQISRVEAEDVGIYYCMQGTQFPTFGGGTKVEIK = 8.78
• H4H581P (antibody, human IgG4, V domains shown, also called mAb H4H581P; H1H581P variable regions) VH: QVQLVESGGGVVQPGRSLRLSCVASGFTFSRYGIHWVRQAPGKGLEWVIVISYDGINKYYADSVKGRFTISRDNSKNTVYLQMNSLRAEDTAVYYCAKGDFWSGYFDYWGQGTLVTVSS VL: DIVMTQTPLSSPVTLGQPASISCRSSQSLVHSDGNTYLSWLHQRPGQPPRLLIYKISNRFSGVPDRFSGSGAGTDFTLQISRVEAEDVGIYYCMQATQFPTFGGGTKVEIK = 9.44

Where these numbers come from: patent US20110059095A1
